- ASSAY_PROTOCOL: NCI Yeast Anticancer Drug Screen. Data for the mec2-1 strain (AID 157)
- RECORDED_CONDITIONS: S. cerevisiae mec2-1 strain, at 50.0 µM, active compounds read high
Compounds without any hit were thinned out: in the full panel of roughly 79,000, 15% have a hit.
# Lookup of reported growth inhibition keyed by entry
// return numeric value only (unit: %, not printed)

Below: 7 molecules and their reported growth inhibition.
Measured growth inhibition of `CC1(C)CCCC/C1=N\Nc1ccc([N+](=O)[O-])cc1[N+](=O)[O-]` : 5.2

Measured growth inhibition of COC(=O)C(NC(=O)c1ccccc1)C(C)=O (stereo not drawn) : -0.7

Measured growth inhibition of CCC(O)C(C)C(O)CC (stereo not drawn) : 14.7

Measured growth inhibition of COc1ccc2c3c([nH]c2c1)C(C)N(S(=O)(=O)c1ccccc1)CC3 (stereo not drawn) : -0.9

Measured growth inhibition of `O=C(COCC(=O)N/N=C/c1ccc(O)cc1)N/N=C/c1ccc(O)cc1` : 22.2

Measured growth inhibition of `COc1ccc(OC)c(CC(N)=O)c1` : 4.6

Measured growth inhibition of `O=C(Nc1nc2ccccc2n1Cc1ccc(Cl)cc1)C(=O)NC12CC3CC(CC(C3)C1)C2` : -24.5

More entries:
Measured growth inhibition of `O.[Cl][Co]([Cl])[Cl].c1c[nH]cn1.c1c[nH]cn1` : -5.6

FYI, the data here is from PubChem BioAssay (NCI).
